Test system: Aspergillus fumigatus MYA3626
assay: In vitro antifungal assay (Example IX), microdilution broth, MEC
Assay type: cell-based
runConditions: minimum effective concentration (shortening of hyphae), 35° C., 40-48 h, RPMI1640
Procedure: Measurement of antifungal activity: […] Candida albicans 90028, Aspergillus fumigatus MYA3626, Rhizomucor pusillus 46342 and Cryptococcus neoformans […] strains were obtained from American Type Culture Collection (ATCC). […] (A. fumigatus) and 35° C. (R. pusillus). […] The resulting spore suspension was counted and diluted into RPMI1640 medium to adjust to a final suspension of 1-2×10^4 spores/mL. […] This was validated by thorough mixing and reading at 600 nm on a microplate reader. […]
For each record, write down the corresponding minimal effective concentration.

In: Read the entry Nc1ncccc1-c1cc(Cc2ccc(Cc3ccc(F)o3)cc2)no1 [compound 124] and write its reported minimal effective concentration.
Out: 0.01 to 0.1 µg/mL

In: Return the recorded minimal effective concentration value; entry: Nc1ncccc1-c1cc(Cc2ccc(Oc3cc(F)cc(F)c3)nc2)no1 [compound 81]
Out: 0.01 to 0.1 µg/mL

In: Note minimal effective concentration for the compound shown: Nc1ncccc1-c1cc(Cc2ccnc(OCc3ccccc3)c2)no1 [Example 148]
Out: 0.01 to 0.1 µg/mL

In: Given Cn1cc(Cc2ccc(Cc3cc(-c4cccnc4N)on3)cc2)cn1 [compound 11] , respond with its minimal effective concentration.
Out: 0.01 to 0.1 µg/mL

In: Write down minimal effective concentration measured for item Nc1ncccc1-c1cc(Cc2ccc(CCC3CCCCC3)cc2)no1 [compound 100]
Out: 0.1 to 1 µg/mL
